measuredOn: Toll-like receptor 4/MD-2 (Homo sapiens, UniProt O00206+Q9Y6Y9)
Sequence (O00206 whole entry): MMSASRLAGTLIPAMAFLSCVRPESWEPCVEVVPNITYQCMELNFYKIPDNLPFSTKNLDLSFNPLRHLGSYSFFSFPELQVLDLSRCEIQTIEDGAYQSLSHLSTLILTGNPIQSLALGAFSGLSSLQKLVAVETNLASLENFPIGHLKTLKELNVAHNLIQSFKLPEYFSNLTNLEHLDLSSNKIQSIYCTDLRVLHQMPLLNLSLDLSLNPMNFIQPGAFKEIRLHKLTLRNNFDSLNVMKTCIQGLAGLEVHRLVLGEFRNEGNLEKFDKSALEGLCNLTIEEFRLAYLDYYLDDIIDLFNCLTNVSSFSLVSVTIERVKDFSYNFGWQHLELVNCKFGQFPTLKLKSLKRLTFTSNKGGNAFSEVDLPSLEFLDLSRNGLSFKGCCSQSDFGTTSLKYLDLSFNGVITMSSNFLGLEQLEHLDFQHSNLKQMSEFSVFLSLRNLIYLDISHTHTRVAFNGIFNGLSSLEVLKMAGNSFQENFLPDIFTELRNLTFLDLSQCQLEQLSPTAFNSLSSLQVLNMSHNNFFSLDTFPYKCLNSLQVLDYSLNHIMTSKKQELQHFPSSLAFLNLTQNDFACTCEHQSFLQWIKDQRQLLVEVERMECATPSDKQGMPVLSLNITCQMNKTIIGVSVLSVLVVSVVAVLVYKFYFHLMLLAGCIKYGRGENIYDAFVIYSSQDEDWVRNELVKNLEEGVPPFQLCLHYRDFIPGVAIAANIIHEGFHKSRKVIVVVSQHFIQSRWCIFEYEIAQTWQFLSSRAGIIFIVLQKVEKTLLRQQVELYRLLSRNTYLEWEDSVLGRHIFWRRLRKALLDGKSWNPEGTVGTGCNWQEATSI
Sequence (Q9Y6Y9 whole entry): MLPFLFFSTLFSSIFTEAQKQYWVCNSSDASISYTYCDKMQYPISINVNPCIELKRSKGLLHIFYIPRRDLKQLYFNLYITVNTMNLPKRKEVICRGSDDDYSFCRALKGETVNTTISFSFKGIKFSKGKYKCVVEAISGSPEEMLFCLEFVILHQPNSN
methodDescription: Activation of TLR4/MD2 (unknown origin) expressed in HEK293 cells co-expressing CD14 assessed as induction of MyD88-dependent NF-kappaB activity after 24 hrs by NF-kappaB SEAP reporter gene assay
Assay type: cell-based
testContext: hek293, 24 h
measuredProperty: Activity

CCCCCCCCCCC[C@H](CC(=O)N[C@H]1[C@H](OC[C@@H](NC(=O)C[C@@H](CCCCCCCCCCC)OC(=O)CCCCCCCCC)C(=O)O)O[C@H](CO)[C@@H](OP(=O)(O)O)[C@@H]1OC(=O)C[C@@H](CCCCCCCCCCC)OCCCCCCCCCC)OCCCCCCCCCC    Toxic
CCCCCCCCCCC[C@H](CC(=O)N[C@H]1[C@H](OC[C@@H](NC(=O)C[C@@H](CCCCCCCCCCC)OC(=O)CCCCCCCCC)C(=O)O)O[C@H](CO)[C@@H](OP(=O)(O)O)[C@@H]1OC(=O)C[C@@H](CCCCCCCCCCC)OC(=O)CCCCCCCCC)OC(=O)CCCCCCCCC    Toxic
